target: SFRP-1 (Homo sapiens); test: Cell-based assay for in vitro measurement of SFRP-1/SARP2 antagonist activity (U2OS cells co-transfected with 16x TCF-tk-Luciferase reporter, Wnt and hSFRP-1); settings: U2OS, read-out: Fold Induction without SFRP-1, Conc 15 μM; single dose; luciferase reporter; cells without SFRP-1 (specificity control);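 further: U2OS cells co-transfected with a TCF-tk luciferase reporter, a Wnt vector, hSFRP-1 or empty vector and CMV-βgal, luciferase luminescence read in cell lysates alongside βgal activity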
Sequence (Q8N474 32-314): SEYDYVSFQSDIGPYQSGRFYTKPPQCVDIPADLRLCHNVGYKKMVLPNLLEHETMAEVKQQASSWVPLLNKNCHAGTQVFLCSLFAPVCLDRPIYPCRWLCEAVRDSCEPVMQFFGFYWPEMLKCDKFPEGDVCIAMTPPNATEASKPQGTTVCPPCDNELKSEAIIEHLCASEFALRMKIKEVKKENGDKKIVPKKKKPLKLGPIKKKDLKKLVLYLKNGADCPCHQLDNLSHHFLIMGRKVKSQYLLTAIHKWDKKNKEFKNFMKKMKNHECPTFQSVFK
fold induction at 15 µM for assorted compounds
The answer should be a number; do not append a unit.

Examples with their reported fold induction at 15 µM follow.
mol	measuredOn	assayResult
CC(C)c1cc(C(C)C)c(S(=O)(=O)c2ccccc2)cc1S(=O)(=O)NCCC1CCOCC1	SFRP-1 (Homo sapiens)	1.1
O=S(=O)(c1ccccc1)c1ccc(Cl)c(S(=O)(=O)N2CCN(Cc3ccc4c(c3)OCO4)CC2)c1	SFRP-1 (Homo sapiens)	1

## Task # get_value(readout='fold induction at 15 µM', item= "CC(C)c1ccc(S(=O)(=O)c2ccc(N3CCN(C(=O)OC(C)(C)C)CC3)cc2)cc1S(=O)(=O)NC1CCOCC1" )
## Result 1.1

## Task # get_value(readout='fold induction at 15 µM', item= "O=S(=O)(NC1CCOCC1)c1cc(S(=O)(=O)c2ccc(F)cc2)ccc1Cl" )
## Result 1.1
